# target: furin, P09958;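 note: purified furin at 1:10 enzyme:substrate in 50 mM HEPES pH 7.5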
# Sequence (P09958 whole entry): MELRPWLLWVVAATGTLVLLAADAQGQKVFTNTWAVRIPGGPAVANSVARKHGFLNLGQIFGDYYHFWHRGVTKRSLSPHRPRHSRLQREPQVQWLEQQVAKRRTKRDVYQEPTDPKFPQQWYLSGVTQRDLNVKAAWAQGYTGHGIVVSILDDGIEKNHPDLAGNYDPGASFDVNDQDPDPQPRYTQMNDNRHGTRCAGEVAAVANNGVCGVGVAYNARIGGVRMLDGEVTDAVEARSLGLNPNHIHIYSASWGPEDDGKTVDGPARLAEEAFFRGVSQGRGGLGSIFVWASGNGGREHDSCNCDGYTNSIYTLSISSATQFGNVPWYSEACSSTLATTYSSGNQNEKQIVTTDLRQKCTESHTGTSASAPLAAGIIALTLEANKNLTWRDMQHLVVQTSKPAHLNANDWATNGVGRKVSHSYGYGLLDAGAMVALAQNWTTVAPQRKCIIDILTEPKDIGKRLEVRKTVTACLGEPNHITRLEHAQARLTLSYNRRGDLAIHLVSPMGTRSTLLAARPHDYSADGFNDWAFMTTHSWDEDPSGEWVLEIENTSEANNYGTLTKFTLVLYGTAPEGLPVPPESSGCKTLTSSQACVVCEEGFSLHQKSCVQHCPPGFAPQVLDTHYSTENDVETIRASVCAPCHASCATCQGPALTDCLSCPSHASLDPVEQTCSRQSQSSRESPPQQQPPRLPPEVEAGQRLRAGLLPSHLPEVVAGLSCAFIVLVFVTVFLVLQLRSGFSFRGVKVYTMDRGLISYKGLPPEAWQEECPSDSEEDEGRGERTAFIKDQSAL
# method_summary: furin cleavage Z-score vs untreated control; higher = more cleavage, active = 3.5 or more, inactive = 1 or less, 8 variable residues between constant flanks
# condition_notes: 15 min
The other results are listed elsewhere or left out. How many sequences the whole screen found active is unknown.
Possible outcomes: active, inactive

query_sequence: CAMEEGSQHLAGNASASA [HC2]
label_value: inactive
--
query_sequence: CARAKRKVTRAGNASASA [FS-2636]
label_value: active
--
query_sequence: CARGLRSIMEAGNASASA [FS-1709]
label_value: inactive
--
query_sequence: CALWARMILMAGNASASA [HC1580]
label_value: inactive
--
query_sequence: CARDGRKVTVAGNASASA [FS-2902]
label_value: inactive
--
query_sequence: CANILRKARSAGNASASA [FS-366]
label_value: active
--
query_sequence: CAKPAIIPDRAGNASASA [HC1006]
label_value: inactive
--
query_sequence: CARDQRDKDGAGNASASA [FS-2412]
label_value: inactive
--
query_sequence: CAASQLSAPSAGNASASA [HC1262]
label_value: inactive
--
query_sequence: CATLLRAARSAGNASASA [FS-1659]
label_value: active
--
query_sequence: CAIRSGKKRTAGNASASA [FS-669]
label_value: inactive
--
query_sequence: CANNARAARSAGNASASA [FS-1547]
label_value: active
--
query_sequence: CASWLGNIIMAGNASASA [HC1574]
label_value: inactive
